TARGET OF ASSAY: T1, recombinant biotinylated human CD137 protein (Fc-fusion protein, R&D Systems 838-4B) (human, UniProt Q07011 24-186, biotinylated (site not stated))
T1 construct: Bought Fc fusion; The ELISA used the same antigen as the panning; also called CD137-Fc; biotinylated CD137; not shown: Fc part of the bought fusion protein
EXPERIMENT: ELISA, bacterial lysate on plate-bound antigen, luminescence
PROPERTY LABEL: ELISA CD137-Fc (RLU)
Answer format: numeric, RLU implied, no suffix.

Supply measured ELISA CD137-Fc (RLU) of ISOP120ER5P1B6 (designed binder, not shown: small tags and cut ends, FN3 domain (Centyrin); tested as E. coli lysate) LPAPKNLVVSRVTEDSARLSWTAPDAAFDSFDIYYGEHWKLGEAIVLTVQGSERSYDLTGLKPGTEYLVTIYGVKGGQWSFPLSAIFTT in your reply. 1.35e+06

Given ISOP120BR5P1F2 (designed binder, not shown: small tags and cut ends, FN3 domain (Centyrin); tested as E. coli lysate) LPAPKNLVVSRVTEDSARLSWTFHPTFEGFDSFLIQYQESEKVGEAIVLTVPGSERSYDLTGLKPGTEYTVSIYGVKWYAGIGYPVSNPLSAIFTT , respond with its ELISA CD137-Fc (RLU). 299000

Please indicate ELISA CD137-Fc (RLU) recorded for ISOP120HR5P1D9 (designed binder, not shown: small tags and cut ends, FN3 domain (Centyrin); tested as E. coli lysate) LPAPKNLVVSRVTEDSARLSWTAPDAAFDSFDIYYRELDFQGEAIVLTVPGSERSYDLTGLKPGTEYLVIIYGVKGGSYSYTLSAIFTT 405000

State its ELISA CD137-Fc (RLU): ISOP120HR5P1B5 (designed binder, not shown: small tags and cut ends, FN3 domain (Centyrin); tested as E. coli lysate) LPAPKNLVVSRVTEDSARLSWTAPDAAFDSFIIRYIEEGYYGEAIVLTVPGSERSYDLTGLKPGTEYHVGIEGVKGGYYSYPLSAIFTT 520000
